- system-name: T1, TNF-R1 (a protein having the amino acid sequence, Accession No. M58286 registered at GENBANK) (UniProt P19438 30-211, limits assumed)
- T1 construct: also called TNF receptor having a molecular weight of 55 kilo daltons
- T1 sequence (looked up): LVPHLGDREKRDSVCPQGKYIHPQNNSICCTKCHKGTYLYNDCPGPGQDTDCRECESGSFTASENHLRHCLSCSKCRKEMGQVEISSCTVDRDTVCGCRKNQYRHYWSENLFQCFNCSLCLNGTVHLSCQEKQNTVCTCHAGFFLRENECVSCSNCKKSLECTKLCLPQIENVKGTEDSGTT
- test: SPR (BIACORE 2000), receptor on sensor tip; grade 3 = 0.5 to 2 times that of recombinant TNF-α
Let's look at some binders and their measured binding affinity relative to recombinant TNF-α.

| binder | observed-value |
| --- | --- |
| TNF mutant protein of clone No. 2 (ligand, Mutant of lysine-replaced TNF, made in E. coli) VRSSSRTPSDMPVAHVVANPQAEGQLQWTNGYANALLANGVELRDNQLVVPSEGLYLIYSQVLFSGQGCPSTHVLLTHTISRIAVSYQTPVNLLSAIRSPCQRETPEGAEANPWYEPIYLGGVFQLEPGDRLSAEINRPDYLDFAESGQVYFGIIAL | 0.5 to 2 fold |

Attention now shifts to the item below.
response.value for TNF mutant protein of clone No. 6 (ligand, Mutant of lysine-replaced TNF, made in E. coli; stop codon at position 147) VRSSSRTPSDMPVAHVVANPQAEGQLQWSNRYANALLANGVELRDNQLVVPSEGLYLIYSQVLFSGQGCPSTHVLLTHTISRIAVSYQTPVNLLSAIRSPCQRETPEGAEANPWYEPIYLGGVFQLEPGDRLSAEINRPDYLDFSM (field: binding affinity relative to recombinant TNF-α) = 0.5 to 2 fold
